test system: HL-60(TB) leukemia; assay: NCI-60 one-dose screen, 48 h (100 = growth as untreated, 0 = no growth, -100 = all killed); details: 10 µM unless noted
This is part of a sample that, as a whole, favours compounds with a hit. Of some 83,000 tested, about 20% had one in any assay.
QUANTITY_NAME: growth (%)
Numbers only, in %.

{"COMPOUND": "CCOc1nc(-c2ccccc2)cc2c(O)c(C(=O)O)[nH]c(=O)c12", "TARGET_ENTITY": "HL-60(TB) leukemia", "RECORDED_VALUE": 120}
{"COMPOUND": "O=C(Nc1cccc(C2=NCCN2)c1)c1ccc(OCCCOc2ccc(C(=O)Nc3cccc(C4=NCCN4)c3)cc2)cc1", "TARGET_ENTITY": "HL-60(TB) leukemia", "RECORDED_VALUE": -27.3}

Batch of 2 compounds: report growth for each.
1. CC(=O)N1N=C(c2ccc(C(F)(F)F)c(F)c2)CC1c1[nH]c(C)c(C(=O)NCC(F)(F)F)c1C (centres undefined)
2. COc1cc(CN2CCC(N3CCCC3=O)c3ccccc32)cc(OC)c1OC (centres undefined)

Result ::
[111, 56.4]
